assayed_target: KRas G12D/Q61H double mutant (Homo sapiens (Human), UniProt P01116, G12D/Q61H)
Sequence (P01116-2 other isoform, or with tags, fused parts or gaps G12D/Q61H): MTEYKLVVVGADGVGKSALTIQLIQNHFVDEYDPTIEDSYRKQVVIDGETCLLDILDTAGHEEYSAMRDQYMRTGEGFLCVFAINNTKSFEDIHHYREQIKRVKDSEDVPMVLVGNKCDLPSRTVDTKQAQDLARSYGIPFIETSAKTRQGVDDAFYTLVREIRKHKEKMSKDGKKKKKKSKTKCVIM
procedure_text: Ras GTP binding domain inhibition assay (labeled GTP)
condition_description: 20 μM compound; KRas G12D/Q61H double mutant; read-out: % Inhibition at 20 μM of K-Ras mutant and wild-type protein, KRas G12D Q61H
inhibition at 20 µM: recorded values
measurement_kind: inhibition at 20 µM

molecule: CCc1noc(CN(CCN(Cc2nc(CC)no2)c2ccccc2)c2ccccc2)n1
result: 51 to 75%
--
molecule: CCNC(=O)COc1ccc(CN2CCN(C3CC3)c3ccc(F)cc32)cc1
result: 1 to 25%
--
molecule: COCCNc1nc(-c2nccn2C)nc2sc(-c3ccccc3)c(-c3ccccc3)c12 [drawing 3535]
result: 51 to 75%
--
molecule: O=C(CCOCc1ccccc1)Nc1nnc(-c2ccccn2)[nH]1
result: 51 to 75%
--
molecule: OC(CNC(Cc1ccccc1)c1nc(-c2ccccc2)no1)COCc1ccccc1Cl (stereo not shown)
result: 25 to 50%
--
molecule: Cc1sc2c(O)nc(-c3ccccn3)nc2c1Br [drawing 3522]
result: 25 to 50%
--
molecule: CCN(CCNC(=O)c1oc(-c2ccccc2)nc1C)c1ccccc1C
result: 51 to 75%
--
molecule: COc1nc(-c2ccccn2)nc2c(C3CCCCC3)csc12 [drawing 3479]
result: 1 to 25%
--
molecule: CC(=O)c1ccccc1OCCN(c1nccs1)S(=O)(=O)c1ccccc1
result: 25 to 50%
--
molecule: CC(C)Cc1csc2c(O)nc(-c3ccccn3)nc12 [drawing 3494]
result: 51 to 75%

The origin of these recorded values is patent US10940139B2.
